- experimental.system: CYP2C9 (Homo sapiens)
- Sequence (P11712 whole entry): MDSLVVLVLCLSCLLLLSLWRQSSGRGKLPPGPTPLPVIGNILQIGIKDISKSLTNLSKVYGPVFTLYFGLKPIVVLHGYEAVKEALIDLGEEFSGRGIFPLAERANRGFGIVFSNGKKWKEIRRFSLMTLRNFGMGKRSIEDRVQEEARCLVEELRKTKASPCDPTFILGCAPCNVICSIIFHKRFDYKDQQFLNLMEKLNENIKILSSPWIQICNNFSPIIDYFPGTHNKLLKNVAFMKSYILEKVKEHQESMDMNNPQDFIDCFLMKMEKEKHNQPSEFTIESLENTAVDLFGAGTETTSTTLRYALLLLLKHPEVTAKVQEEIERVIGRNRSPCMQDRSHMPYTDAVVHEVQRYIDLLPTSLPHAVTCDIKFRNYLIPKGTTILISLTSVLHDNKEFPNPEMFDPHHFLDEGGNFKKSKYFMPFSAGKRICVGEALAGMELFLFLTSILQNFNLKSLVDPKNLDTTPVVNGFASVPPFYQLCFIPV
- assay: CYP P450 inhibition in HLMs (Eurofins Panlabs)
- Format: in vitro ADME
- Parameters: from tissue; host or cells: human liver microsomes (HLMs)
- recorded.conditions: microsomes, S-CE-123 10 µM, range given for CYP2C9, CYP1A and CYP2D6 together, read-out: inhibition of control values
measured.endpoint: inhibition at 10 min, 10 µM

Give a short answer stating reported inhibition at 10 min, 10 µM for [O-][S@@+](Cc1cncs1)C(c1ccccc1)c1ccccc1 . 47 to 68%

* * *

- assay: In vivo rat tissue biodistribution / neuroPK study, 4 h intravenous constant infusion
- Parameters: species or system Sprague-Dawley rats
- recorded.conditions: Sprague-Dawley, rat, plasma, intravenous, 20 mg/kg, rat, 4 h iv constant infusion 20 mg/kg; read-out: Total steady-state plasma concentration, Cplasma,ss
measured.endpoint: concentration at 4 h
# number then unit; no other words

- molecule: "NC(=O)C[S@@+]([O-])C(c1ccccc1)c1ccccc1 [R-modafinil, reference compound]"
  value: "5.57 µM"

Please give measured concentration at 4 h of the following entry: [O-][S@@+](Cc1cncs1)C(c1ccccc1)c1ccccc1 [S-CE-123] 4.15 µM

* * *

- assay: In vivo rat tissue biodistribution / neuroPK study, 4 h intravenous constant infusion
- Parameters: species or system Sprague-Dawley rats
- recorded.conditions: Sprague-Dawley, rat, spinal cord, intravenous, 20 mg/kg, rat, 4 h iv constant infusion 20 mg/kg, n=3; read-out: Total concentration in spinal cord
measured.endpoint: concentration at 4 h (ng/g)
One number for each entry, in ng/g.

- compound: "[O-][S@@+](Cc1cncs1)C(c1ccccc1)c1ccccc1 [S-CE-123]"
  measured.endpoint: "concentration at 4 h"
  unit.text: "ng/g"
  value: 1240

Note concentration at 4 h for the compound shown: NC(=O)C[S@@+]([O-])C(c1ccccc1)c1ccccc1 [R-modafinil, reference compound] 733

* * *

- assay: In vivo rat tissue biodistribution / neuroPK study, 4 h intravenous constant infusion
- Parameters: species or system Sprague-Dawley rats
- recorded.conditions: Sprague-Dawley, rat, brain, intravenous, 20 mg/kg, single sample, rat brain after 4 h iv infusion 20 mg/kg; read-out: concentration in rat brain sample (Figure S4 chromatogram)
- Protocol: The results are summarized in Figure 4 and Table S2 within Supplementary Materials. In order to minimize the usage of animals and gain high confidence in the tissue distribution, a 4 h constant intravenous infusion study was designed based on the systemic pharmacokinetic parameters determined elsewhere. The catheters were surgically implanted a day before the PK experiment. The rats (n = 3 per compound) were then individually placed into a CMA 120 system (CMA, Solna, Sweden). […]
measured.endpoint: concentration at 4 h (ng/mL)
Give bare numbers, in ng/mL.

Consider the molecule NC(=O)C[S@@+]([O-])C(c1ccccc1)c1ccccc1 [R-modafinil, reference compound] . State its measured concentration at 4 h. 471

* * *

Give fraction unbound at 5 h, 10 µM for every item shown.
- assay: Equilibrium dialysis, plasma protein binding
- Format: in vitro ADME, rat
- recorded.conditions: rat, undiluted rat plasma containing 10% DMF, pH 7.4, rat plasma, 10 µM, 5 h, 37 °C; plasma with 10% DMF; read-out: Fraction unbound in plasma, fu,plasma

- molecule: "[O-][S@@+](Cc1cncs1)C(c1ccccc1)c1ccccc1 [S-CE-123]"
  fraction unbound at 5 h, 10 µM: 0.25

Assign fraction unbound at 5 h, 10 µM to the following record: NC(=O)C[S@@+]([O-])C(c1ccccc1)c1ccccc1 [R-modafinil, reference compound] 0.79
